Would you mind telling me the reported growth inhibition of each entry?
Test: inhibition of 3D7 malaria parasite growth – strain 3D7 (AID 2306);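 further: 0% = DMSO wells and 100% = chloroquine plus artemisinin control wells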
Conditions: P. falciparum 3D7 erythrocytic growth, LDH absorbance, 72 h; at 2 µM; active compounds read high
One number for each entry, in %.

Look up growth inhibition for the entries below, preserving their order.
1. CCc1nc2nc(C)cc(Nc3ccc4c(c3)OCCO4)n2n1
2. CCCCc1ccc(-c2c(N)nc(N)nc2CC)cc1
3. Cc1cnc(C(=O)Nc2cccc(-c3ccc(-c4nc5ccc(F)cc5[nH]4)cc3)c2)cn1
4. OC1CCCN(Cc2ccc(-c3ccc(-c4nc5ccc(F)cc5[nH]4)cc3)cc2)C1 (configuration not stated)
5. CC(C)(C)NC(=O)c1ccc(Oc2ccc(OC(F)(F)F)cc2)c(NC(=O)C(C)(C)C)c1
6. C[C@H](NC(=O)[C@H](CCCCNC(=O)OC(C)(C)C)NC(=O)OC(C)(C)c1ccc(-c2ccccc2)cc1)C(=O)OCc1ccccc1
7. CC(C)(C)OC(=O)NCCc1cccc(-c2c[nH]c3ncc(-c4cccc(NS(C)(=O)=O)c4)cc23)c1

stdout:
1: 88; 2: 95; 3: 102; 4: 100; 5: 89; 6: 97; 7: 97

Look up growth inhibition for the entries below, preserving their order.
1. C=C[C@]1(C)C[C@@H](OC(=O)c2n[nH]c3ccccc3c2=O)[C@]2(C)[C@H](C)CC[C@]3(CCC(=O)[C@H]32)[C@@H](C)[C@@H]1O
2. O=C(Nc1ccon1)c1cc(-c2cccnc2)nc2ccc(Cl)cc12
3. CCOc1cc(Br)c(C(C)NC(=O)c2cccc(OC)c2)cc1OCC (configuration not stated)
4. CN(Cc1c(Cl)cnn1C)S(=O)(=O)c1ccc2ccccc2c1
5. Cc1ccc(-n2c(=O)c3c(n4c(SC(C)C)nnc24)-c2ccccc2CC32CCCCC2)cc1

stdout:
1: 96; 2: 98; 3: 90; 4: 94; 5: 95

Look up growth inhibition for the entries below, preserving their order.
1. CCc1[nH]nc(C(=O)Nc2cccc(N3CCCC3)c2)c1C
2. N#Cc1cncc(-c2nc3c(N4CCC(N5CCCC5)CC4)cccc3n2CCNCc2ccccc2)c1
3. COc1ccc2nccc([C@H](O)CN3CCC(NCc4nc5c(F)cccc5[nH]4)CC3)c2c1
4. CNc1ccc(CNCc2cccc(-c3ccc(-c4nc5ccccc5[nH]4)s3)c2)cc1
5. CCC(C)(C)c1ccc2nc(N)nc(N)c2c1C
6. CN1CCN(c2cccc(-c3nnc(-c4ccc(OCC(=O)NCc5cccc(C(F)(F)F)c5)c([N+](=O)[O-])c4)o3)c2)CC1

stdout:
[81, 100, 98, 100, 91, 90]

Look up growth inhibition for the entries below, preserving their order.
1. NC1CCN(Cc2ccc(-c3ccc(-c4nc5ccccc5[nH]4)cc3)cc2)C1 (configuration not stated)
2. O=c1cc(NCCCN(Cc2ccccc2)Cc2ccccc2)[nH]c2ccccc12
3. COc1ccc(CCCN2C(=O)C(c3ccccc3)(c3ccccc3)N=C2N)cc1
4. O=C(/C=C/c1c(Cl)cccc1Cl)NC1CCC(CN2CCC(c3c[nH]c4ccncc34)CC2)CC1 (configuration not stated)

stdout:
[101, 100, 94, 99]

Look up growth inhibition for the entries below, preserving their order.
1. CC(=O)c1ccc2c(c1)CCN(CCC1CCC(NC(=O)c3cc4ccccc4[nH]3)CC1)CC2 (configuration not stated)
2. O=C(/C=C/c1ccc(Cl)c(Cl)c1)N1CCC(CN2CCC(Cc3cc4ccccc4[nH]3)CC2)CC1
3. CC(C)c1nc(N2CCN(C(=S)NCc3ccccc3)CC2)c(C#N)c2c1COC(C)(C)C2
4. Cc1ccc(C(=O)Cn2nc(-c3ccc(C)c(S(=O)(=O)N4CCCCC4)c3)ccc2=O)cc1

stdout:
1. 86
2. 96
3. 99
4. 99

Look up growth inhibition for the entries below, preserving their order.
1. Cc1nc2nc(N)nc(N)c2c(C)c1Cc1cccc(C#N)c1
2. Cc1cc(OCCCN2CCC(NS(=O)(=O)c3cccc(Br)c3)C2)c2ccccc2n1 (configuration not stated)
3. CCOc1cc(C(=O)NCCN(CC)c2cccc(C)c2)ccc1-c1nc2ccc(Cl)cc2[nH]1
4. COc1ccc(NC(=O)c2ccc(-c3cc(NC(=O)c4ccnc(N5CCCC5)c4)ccc3C)s2)cc1N1CCN(C)CC1

stdout:
97
86
102
100

Look up growth inhibition for the entries below, preserving their order.
1. COc1ccc2nccc([C@@H](O)CN3CCC(NCCNc4ccccn4)CC3)c2c1
2. Cc1ccc(CN=C(N)NC(=O)c2nc(Cl)c(NCc3ccc(Cl)cc3)nc2N)c(C)c1
3. O=C(NC1CCCC1)c1ccc(N2CCC(NCc3cccc(C(F)(F)F)c3)CC2)cc1
4. C=C[C@]1(C)C[C@@H](OC(=O)CNC[C@@H](O)CN2C[C@H](c3ccnc4ccc(OC)nc34)OC2=O)[C@]2(C)[C@H](C)CC[C@]3(CCC(=O)[C@H]32)[C@@H](C)[C@@H]1O
5. CCOc1cc(Cc2cnc(N)nc2N)cc(OCC)c1O
6. Cc1cccc2[nH]c(-c3ccc(-c4ccc(CNCC5CCCO5)cc4)s3)nc12 (configuration not stated)
7. CN1CCN(CCCN(Cc2cccc(-c3ccc(CNCCc4ccccc4)cc3)c2)C(=O)c2cccs2)CC1

stdout:
1. 101
2. 101
3. 87
4. 89
5. 89
6. 100
7. 101
